target: bafilomycin-sensitive ATPase in chicken osteoclasts (Gallus gallus, UniProt A0A8V0Z1D5+Q9I8C8); test: Inhibition of bafilomycin-sensitive ATPase in chicken osteoclasts; type: biochemical; conditions: chicken osteoclast membranes, read-out: IC50 (nM) ATPase assay
Sequence (Q9I8C8 entry or part of it): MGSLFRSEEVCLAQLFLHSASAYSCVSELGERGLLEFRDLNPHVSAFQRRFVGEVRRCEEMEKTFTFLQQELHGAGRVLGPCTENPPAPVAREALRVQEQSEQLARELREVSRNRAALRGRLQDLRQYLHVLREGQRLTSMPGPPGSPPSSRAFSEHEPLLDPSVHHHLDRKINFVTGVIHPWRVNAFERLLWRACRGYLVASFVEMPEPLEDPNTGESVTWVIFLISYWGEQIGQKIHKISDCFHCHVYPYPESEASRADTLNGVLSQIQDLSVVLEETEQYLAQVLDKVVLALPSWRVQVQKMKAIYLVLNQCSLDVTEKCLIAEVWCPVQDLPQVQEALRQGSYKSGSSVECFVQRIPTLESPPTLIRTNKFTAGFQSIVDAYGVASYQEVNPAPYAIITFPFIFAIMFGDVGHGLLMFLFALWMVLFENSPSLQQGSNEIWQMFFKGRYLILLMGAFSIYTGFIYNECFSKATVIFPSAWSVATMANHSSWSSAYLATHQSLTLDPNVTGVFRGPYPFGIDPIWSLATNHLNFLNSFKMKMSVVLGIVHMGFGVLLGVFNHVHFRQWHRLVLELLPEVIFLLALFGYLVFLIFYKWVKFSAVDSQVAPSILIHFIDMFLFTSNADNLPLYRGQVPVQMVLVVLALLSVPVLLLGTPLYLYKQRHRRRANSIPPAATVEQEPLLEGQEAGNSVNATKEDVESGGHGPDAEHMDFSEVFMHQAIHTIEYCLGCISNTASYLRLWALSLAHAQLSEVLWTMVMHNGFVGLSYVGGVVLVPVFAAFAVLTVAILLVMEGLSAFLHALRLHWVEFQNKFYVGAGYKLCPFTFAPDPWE
Sequence (P49712 whole entry, further chain): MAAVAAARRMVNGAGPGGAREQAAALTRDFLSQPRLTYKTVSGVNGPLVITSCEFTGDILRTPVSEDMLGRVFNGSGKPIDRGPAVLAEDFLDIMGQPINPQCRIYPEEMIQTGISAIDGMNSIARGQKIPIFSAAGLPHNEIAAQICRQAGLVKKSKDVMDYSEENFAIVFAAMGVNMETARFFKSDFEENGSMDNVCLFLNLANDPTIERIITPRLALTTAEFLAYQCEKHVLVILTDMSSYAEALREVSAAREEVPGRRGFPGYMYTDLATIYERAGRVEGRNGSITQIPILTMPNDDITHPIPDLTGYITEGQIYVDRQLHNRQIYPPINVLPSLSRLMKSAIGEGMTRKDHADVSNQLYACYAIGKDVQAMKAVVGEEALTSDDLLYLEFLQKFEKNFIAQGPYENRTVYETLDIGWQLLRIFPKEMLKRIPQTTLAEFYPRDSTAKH
Sequence (Q5ZHL0 whole entry, further chain): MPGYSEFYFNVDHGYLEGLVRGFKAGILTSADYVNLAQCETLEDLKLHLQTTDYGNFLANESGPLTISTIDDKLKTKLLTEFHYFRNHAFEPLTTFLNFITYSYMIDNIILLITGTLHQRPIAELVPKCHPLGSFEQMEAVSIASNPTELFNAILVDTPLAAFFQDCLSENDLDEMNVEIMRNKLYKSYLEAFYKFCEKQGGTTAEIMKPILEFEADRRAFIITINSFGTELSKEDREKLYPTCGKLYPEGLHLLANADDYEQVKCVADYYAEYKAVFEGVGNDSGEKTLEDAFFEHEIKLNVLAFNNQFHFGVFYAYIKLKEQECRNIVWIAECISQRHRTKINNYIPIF
Sequence (Q90647 whole entry, further chain): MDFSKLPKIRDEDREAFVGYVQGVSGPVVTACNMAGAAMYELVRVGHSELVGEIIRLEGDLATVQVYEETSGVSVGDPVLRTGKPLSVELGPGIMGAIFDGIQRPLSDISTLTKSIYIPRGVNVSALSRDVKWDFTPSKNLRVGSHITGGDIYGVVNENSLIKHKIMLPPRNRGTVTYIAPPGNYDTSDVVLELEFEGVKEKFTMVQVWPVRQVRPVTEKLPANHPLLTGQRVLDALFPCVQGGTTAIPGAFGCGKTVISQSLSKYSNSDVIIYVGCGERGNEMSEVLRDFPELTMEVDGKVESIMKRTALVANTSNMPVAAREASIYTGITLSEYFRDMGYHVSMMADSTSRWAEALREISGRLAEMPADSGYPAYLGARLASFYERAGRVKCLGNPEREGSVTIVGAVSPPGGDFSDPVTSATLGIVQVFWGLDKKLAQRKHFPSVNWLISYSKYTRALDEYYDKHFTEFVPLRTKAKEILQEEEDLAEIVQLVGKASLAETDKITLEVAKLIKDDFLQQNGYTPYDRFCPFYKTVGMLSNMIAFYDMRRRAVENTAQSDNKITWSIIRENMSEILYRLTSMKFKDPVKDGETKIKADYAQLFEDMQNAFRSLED
Sequence (A0A8V0Z1D5 entry or part of it): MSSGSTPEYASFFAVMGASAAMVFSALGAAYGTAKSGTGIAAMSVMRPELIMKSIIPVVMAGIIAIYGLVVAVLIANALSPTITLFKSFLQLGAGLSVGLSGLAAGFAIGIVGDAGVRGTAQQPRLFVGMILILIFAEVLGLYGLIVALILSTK
Counter-ions that a name gives are not always drawn.
observed property: IC50 (nM)

Here are 3 molecules together with their reported answers.
molecule="COC(=CC=Cc1cc2cc(Cl)c(Cl)cc2[nH]1)C(=O)NCCCN1C(C)CN(c2ncccn2)CC1C (centres unmarked) [Example 62, hydrochloride]" units_of_measure=nM val=30
molecule="CO/C(=C\\C=C\\c1cc2cc(Cl)c(Cl)cc2[nH]1)C(=O)NCCCN1CCN(c2ccccn2)CC1 [Example 75]" units_of_measure=nM val=30
molecule="CO/C(=C\\C=C\\c1cc2cc(Cl)c(Cl)cc2[nH]1)C(=O)NCCCN1CCCN(c2ncccn2)CC1 [Example 74]" units_of_measure=nM val=42

I. CO/C(=C\C=C\c1cc2cc(Cl)c(Cl)cc2[nH]1)C(=O)NC1CCCC(N(C)C)C1 (centres unmarked) [Example 61]
II. CO/C(=C\C=C\c1cc2cc(Cl)c(Cl)cc2[nH]1)C(=O)NC1CC(C)(C)N(C)C(C)(C)C1 [Example 1]
Inquiry: Identify the item whose IC50 is the smaller number: I or II Bench note: the answer is the label of the chosen record.
Reply text: II

###

Structures can show the parent of a compound that is named as a salt.
observed property: melting point

Inquiry: Look up melting point for this molecule: CO/C(=C\C=C\c1cc2cc(Cl)c(Cl)cc2[nH]1)C(=O)NC1CCCC(N(C)C)C1 (stereo not drawn)
Reply text: 200 to 201 °C

Inquiry: Look up melting point for this molecule: COC(=CC=Cc1cc2cc(Cl)c(Cl)cc2[nH]1)C(=O)NCCCN1C(C)CN(c2ncccn2)CC1C (stereo not drawn) (as salt: hydrochloride)
Reply text: 245 °C

Inquiry: Look up melting point for this molecule: CO/C(=C\C=C\c1cc2cc(Cl)c(Cl)cc2[nH]1)C(=O)NCCCN1CCCN(c2ncccn2)CC1
Reply text: 220 to 222 °C

Inquiry: Look up melting point for this molecule: CO/C(=C\C=C\c1cc2cc(Cl)c(Cl)cc2[nH]1)C(=O)NCCCN1CCN(c2ccccn2)CC1
Reply text: 219 to 220 °C

Inquiry: Look up melting point for this molecule: CO/C(=C\C=C\c1cc2cc(Cl)c(Cl)cc2[nH]1)C(=O)NCCCN1CCN(c2ccccc2)CC1
Reply text: 223 to 225 °C

Inquiry: Look up melting point for this molecule: CO/C(=C\C=C\c1cc2cc(Cl)c(Cl)cc2[nH]1)C(=O)NCCCN1CCN(c2cccc(Cl)c2)CC1
Reply text: 192 to 193 °C
